These measurements were taken from PubChem BioAssay AID1996.

run_parameters: buffer; pH 7.4; 200.0 µM
measurement_label: solubility kinetic

Use these answered entries as a reference point.
O=[N+]([O-])c1ccc(C(O)CN2CCOCC2)cc1 (centres undefined)    > 37.8 µg/mL
CCOC(=O)c1c(NC(=O)C2CC2)sc2c1CC(C)(C)OC2    < 0.7 µg/mL
CCOC(=O)c1sc(-c2ccc(C(F)(F)F)cc2)nc1O    > 47.6 µg/mL

We next turn to a different compound, shown below.
[ask] Value lookup for solubility kinetic; key = COc1ccc(C(=O)N2CCC(C(=O)Nc3ccc(C)cc3)CC2)cc1
[reply] > 52.9 µg/mL
